Biological target: Human AMPK α2ß2γ1 (Homo sapiens, UniProt O43741+P54646)
Construct: The full length cDNAs of human AMPK ß2 (NM_005399.3) and human AMPK α2 (NM_006252.3); The full length cDNAs of human AMPK ß2 (NM_005399.3); 6xHis (N); made in house; host or cells: Escherichia coli BL21 CodonPlus (DE3)-RIL
Sequence (P54646 whole entry): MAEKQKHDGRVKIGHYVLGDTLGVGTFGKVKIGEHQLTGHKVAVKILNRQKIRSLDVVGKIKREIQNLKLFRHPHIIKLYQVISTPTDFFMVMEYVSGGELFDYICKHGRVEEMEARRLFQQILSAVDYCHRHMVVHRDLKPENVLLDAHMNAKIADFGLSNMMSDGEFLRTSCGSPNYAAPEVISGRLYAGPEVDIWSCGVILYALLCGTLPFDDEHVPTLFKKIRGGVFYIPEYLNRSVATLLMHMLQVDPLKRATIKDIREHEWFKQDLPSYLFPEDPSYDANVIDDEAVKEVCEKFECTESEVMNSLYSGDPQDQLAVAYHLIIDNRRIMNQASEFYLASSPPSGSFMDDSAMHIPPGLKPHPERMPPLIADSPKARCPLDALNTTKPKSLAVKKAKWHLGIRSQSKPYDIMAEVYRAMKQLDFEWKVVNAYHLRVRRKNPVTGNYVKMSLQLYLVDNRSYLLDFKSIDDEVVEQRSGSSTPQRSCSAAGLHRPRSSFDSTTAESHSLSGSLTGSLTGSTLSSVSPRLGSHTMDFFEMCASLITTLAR
Sequence (O43741 whole entry): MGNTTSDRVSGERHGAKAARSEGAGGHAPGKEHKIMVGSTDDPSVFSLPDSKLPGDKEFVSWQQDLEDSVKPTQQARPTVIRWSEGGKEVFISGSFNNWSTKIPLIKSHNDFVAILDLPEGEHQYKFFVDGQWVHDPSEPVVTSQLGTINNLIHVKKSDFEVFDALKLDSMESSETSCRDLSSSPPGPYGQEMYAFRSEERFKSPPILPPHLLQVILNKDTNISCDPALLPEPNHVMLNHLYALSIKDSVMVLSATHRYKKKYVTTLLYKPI
Sequence (P54619 whole entry partner): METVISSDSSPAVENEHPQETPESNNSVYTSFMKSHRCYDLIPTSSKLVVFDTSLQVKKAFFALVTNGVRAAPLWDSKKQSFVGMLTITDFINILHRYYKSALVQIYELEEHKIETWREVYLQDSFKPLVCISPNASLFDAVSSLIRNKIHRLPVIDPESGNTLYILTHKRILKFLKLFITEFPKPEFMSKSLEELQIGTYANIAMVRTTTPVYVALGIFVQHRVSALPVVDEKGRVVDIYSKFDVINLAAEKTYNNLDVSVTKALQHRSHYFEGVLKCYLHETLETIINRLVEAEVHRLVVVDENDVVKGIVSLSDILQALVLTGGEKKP
Experiment: Test Example 2: evaluation of an activator for AMP-activated protein kinase (AMPK), LabChip mobility shift assay with CaMKK2-phosphorylated enzyme
Assay type: biochemical
Conditions: FL-Peptide 7 substrate, 25° C., 2 hours
Protocol: The full length cDNAs of human AMPK ß2 (NM_005399.3) and human AMPK α2 (NM_006252.3) were inserted into the MCS1 and MCS2 of the pETDuet-1 vector to prepare a human AMPK ß2 and human AMPK α2 (6× His tag at the 5′ terminus) expressing plasmid. […] A conversion rate was calculated from the peak heights of the obtained substrate and product. […]
# EC150 (compound concentration showing 150% relative to the control (100%)) per entry
Write the number in nM without appending the unit.

Cc1cc(-c2cc(F)c3c(c2)CC[C@@H]3Nc2nc3nc(O[C@@H]4CO[C@H]5[C@@H]4OC[C@H]5O)[nH]c3cc2Cl)cnn1 [Compound I-2-45]
2.1
CCOc1ncc(-c2cc(F)c3c(c2)CC[C@@H]3Nc2nc3nc(O[C@@H]4CO[C@H]5[C@@H]4OC[C@H]5O)[nH]c3cc2Cl)cn1 [Compound I-2-71]
8.6

The reported EC150 (compound concentration showing 150% relative to the control (100%)) of the compound O[C@@H]1CO[C@H]2[C@@H]1OC[C@H]2Oc1nc2nc(NC3CCc4cc(OCC5CCO5)cc(F)c43)c(Cl)cc2[nH]1 (stereo partly drawn) [Compound I-1-83] was 2.2

The reported EC150 (compound concentration showing 150% relative to the control (100%)) of the compound CS(C)(=O)=Nc1cc(F)c2c(c1)CC[C@@H]2Nc1nc2nc(O[C@@H]3CO[C@H]4[C@@H]3OC[C@H]4O)[nH]c2cc1Cl [Compound I-2-08] was 3.5

The reported EC150 (compound concentration showing 150% relative to the control (100%)) of the compound O[C@@H]1CO[C@H]2[C@@H]1OC[C@H]2Oc1nc2nc(NC3CCc4cc(OCCN5CCCCC5)cc(F)c43)c(Cl)cc2[nH]1 (stereo partly drawn) [Compound I-1-38] was 8

The reported EC150 (compound concentration showing 150% relative to the control (100%)) of the compound O[C@@H]1CO[C@H]2[C@@H]1OC[C@H]2Oc1nc2cc(Cl)c(NC3CCc4cc(OCCOC(F)F)cc(F)c43)nc2[nH]1 (stereo partly drawn) [Compound I-2-14] was 5.6
